tested on: HT-1080; test: Antiproliferative activity against human HT1080 cells assessed as reduction in cell viability incubated for 72 hrs by MTT assay; format: functional, cell-based; details: HT-1080, 72 h
pIC50: −log10 of the molar value.
Readout Type: pIC50

                         compound_structure  assayed_system  sign_qualifier  reported
0  C=C1CC[C@H]2O[C@@]2(C)[C@H](OC(=O)C=C(C)C)/C=C/[C@@](C)(CCC=C(C)C)CC1=O         HT-1080               =      5.92
1  C=C1CC[C@H]2O[C@@]2(C)[C@H](OC(=O)C=C(C)C)/C=C/[C@@](C)(CCC=C(C)C)C[C@H]1O         HT-1080               <      4.70
2  CC(C)=CCC[C@]1(C)/C=C/[C@@H](OC(=O)C=C(C)C)[C@]2(C)O[C@@H]2CC/C(CO)=C\C1         HT-1080               <      4.70
3  C=C(I)CC[C@H]1O[C@@]1(C)[C@@H](/C=C/[C@](C)(CC=O)CCC=C(C)C)OC(=O)C=C(C)C         HT-1080               =      4.74
4  CC(C)=CCC[C@]1(C)/C=C/[C@@H](OC(=O)C=C(C)C)[C@]2(C)O[C@@H]2CC/C(C=O)=C\C1         HT-1080               =      4.74

* * *

test system: HT-1080; assay: Effect on Akt level in human HT1080 cells assessed as Akt level at 10 uM incubated for 24 hrs by immunoblot assay (reference value: 1); type: cell-based; settings: ht-1080, 24 h
Readout Type: fold change (FC)

In [3]: df
Out[3]:
                         compound_structure  reported
0  C=C(I)CC[C@H]1O[C@@]1(C)[C@@H](/C=C/[C@](C)(CC=O)CCC=C(C)C)OC(=O)C=C(C)C      0.92
1  CC(C)=CCC[C@]1(C)/C=C/[C@@H](OC(=O)C=C(C)C)[C@]2(C)O[C@@H]2CC/C(C=O)=C\C1      0.85
2  C=C1CC[C@H]2O[C@@]2(C)[C@H](OC(=O)C=C(C)C)/C=C/[C@@](C)(CCC=C(C)C)C[C@H]1O      0.98
3  CC(C)=CCC[C@]1(C)/C=C/[C@@H](OC(=O)C=C(C)C)[C@]2(C)O[C@@H]2CC/C(CO)=C\C1      1.08
4  C=C1CC[C@H]2O[C@@]2(C)[C@H](OC(=O)C=C(C)C)/C=C/[C@@](C)(CCC=C(C)C)CC1=O       0.8

* * *

tested on: NEC8; test: Antiproliferative activity against human NEC8 cells assessed as reduction in cell viability incubated for 72 hrs by MTT assay; format: functional, cell-based; conditions: NEC8, 72 h
Property: IC50; scope: individual molecules
Readout Type: IC50

                         compound_structure  reported
0  C=C1CC[C@H]2O[C@@]2(C)[C@H](OC(=O)C=C(C)C)/C=C/[C@@](C)(CCC=C(C)C)C[C@H]1O     11 µM
1  CC(C)=CCC[C@]1(C)/C=C/[C@@H](OC(=O)C=C(C)C)[C@]2(C)O[C@@H]2CC/C(C=O)=C\C1     12 µM
2  C=C(I)CC[C@H]1O[C@@]1(C)[C@@H](/C=C/[C@](C)(CC=O)CCC=C(C)C)OC(=O)C=C(C)C     11 µM
3  CC(C)=CCC[C@]1(C)/C=C/[C@@H](OC(=O)C=C(C)C)[C@]2(C)O[C@@H]2CC/C(CO)=C\C1    8.4 µM
4  C=C1CC[C@H]2O[C@@]2(C)[C@H](OC(=O)C=C(C)C)/C=C/[C@@](C)(CCC=C(C)C)CC1=O      3 µM
